These data points were gathered from paper PMC8151276.

Biological target: HTR2C (Homo sapiens)
Construct: purchased Promega (in-house HiBiT-GPCR construct library, NanoBRET)
Sequence (P28335 33-458): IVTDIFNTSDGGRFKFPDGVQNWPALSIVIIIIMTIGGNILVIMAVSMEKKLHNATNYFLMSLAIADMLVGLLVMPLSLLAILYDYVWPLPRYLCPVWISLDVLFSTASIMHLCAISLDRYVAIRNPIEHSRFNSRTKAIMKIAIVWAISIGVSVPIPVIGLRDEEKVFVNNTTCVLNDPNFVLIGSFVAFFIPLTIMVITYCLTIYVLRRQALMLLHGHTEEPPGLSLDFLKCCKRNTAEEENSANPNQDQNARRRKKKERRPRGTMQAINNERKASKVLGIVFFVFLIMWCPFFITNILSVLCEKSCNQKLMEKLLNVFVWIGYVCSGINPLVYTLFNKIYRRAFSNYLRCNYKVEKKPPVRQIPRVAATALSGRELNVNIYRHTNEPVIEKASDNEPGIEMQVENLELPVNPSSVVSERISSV
Test: NanoBRET screen HiBiT-HTR2C in HEK293
Assay type: binding
Settings: HTR2C; tracer 0.1μM
I'd appreciate it if you could supply NanoBRET Fold Response values for the items below.
Answers are plain numbers.

Give measured NanoBRET Fold Response for every item shown.
1. O=C(CCc1ccc2n1[B-](F)(F)[N+]1=C(c3ccc[nH]3)C=CC1=C2)NCc1ccc(C(=O)NCCOCCC(=O)N[C@@H]2CC[C@@]3(O)[C@H]4Cc5ccc(O)c6c5[C@@]3(CCN4CC3CC3)[C@H]2O6)cc1 [Naltrexone-3-NB590]
2. Cc1nc2n(c(=O)c1CCN1CCC(c3noc4cc(F)ccc34)CC1)CCCC2OC(=O)NCCOCCOCCOCCOCCNC(=O)CCc1ccc2n1[B-](F)(F)[N+]1=C(c3ccc[nH]3)C=CC1=C2 (centres unmarked)
3. N#CN=C(NCCCOc1cccc(CN2CCCCC2)c1)NCCNC(=O)CCOCCOCCOCCOCCNC(=O)CCc1ccc2n1[B-](F)(F)[N+]1=C(c3ccc[nH]3)C=CC1=C2
4. Cc1cc2c(s1)Nc1ccccc1N=C2N1CCN(CCCNC(=O)CCOCCOCCOCCOCCNC(=O)CCc2ccc3n2[B-](F)(F)[N+]2=C(c4ccc[nH]4)C=CC2=C3)CC1
5. CC(C)N(CC[C@H](c1ccccc1)c1cc(CCNC(=O)CCOCCOCCOCCOCCNC(=O)CCc2ccc3n2[B-](F)(F)[N+]2=C(c4ccc[nH]4)C=CC2=C3)ccc1O)C(C)C

Response given:
1: 0.79; 2: 1.26; 3: 1.01; 4: 1.54; 5: 1.09

###

Molecular target: LTB4R (Homo sapiens, UniProt Q15722)
Construct: purchased Promega (in-house HiBiT-GPCR construct library, NanoBRET)
Sequence (Q15722 whole entry): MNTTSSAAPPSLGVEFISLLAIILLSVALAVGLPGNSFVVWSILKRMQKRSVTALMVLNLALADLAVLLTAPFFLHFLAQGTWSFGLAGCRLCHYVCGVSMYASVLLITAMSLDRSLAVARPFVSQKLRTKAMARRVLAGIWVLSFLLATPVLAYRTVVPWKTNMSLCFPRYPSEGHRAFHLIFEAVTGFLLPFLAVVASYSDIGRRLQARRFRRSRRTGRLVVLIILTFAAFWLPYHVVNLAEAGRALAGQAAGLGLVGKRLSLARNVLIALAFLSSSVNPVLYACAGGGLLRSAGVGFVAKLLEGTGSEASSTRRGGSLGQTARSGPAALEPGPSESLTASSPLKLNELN
Experiment: NanoBRET screen HiBiT-LTB4R in HEK293
Assay type: binding
Settings: LTB4R; tracer 0.1μM
Experimental: Each tracer candidate was screened across the entire library of HiBiT-GPCR constructs using NanoBRET as the detection modality. As depicted in Figure 4A, the specificity of interactions was evaluated through decrease in BRET due to competitive displacement of a bound tracer by excess parental compound. Each tracer was analyzed for binding to each HiBiT-GPCR fusion in the absence and in the presence of competing parental compound. […]
I'd appreciate it if you could supply NanoBRET Fold Response values for the items below.
Give bare numbers.

Answered examples (4):
INSERT INTO assay_data (compound, endpoint, result_number) VALUES
  ('O=C(CCc1ccc2n1[B-](F)(F)[N+]1=C(c3ccc[nH]3)C=CC1=C2)NCc1ccc(C(=O)NCCOCCC(=O)N[C@@H]2CC[C@@]3(O)[C@H]4Cc5ccc(O)c6c5[C@@]3(CCN4CC3CC3)[C@H]2O6)cc1 [Naltrexone-3-NB590]', 'NanoBRET Fold Response', 0.68),
  ('Cc1cc2c(s1)Nc1ccccc1N=C2N1CCN(CCCNC(=O)CCOCCOCCOCCOCCNC(=O)CCc2ccc3n2[B-](F)(F)[N+]2=C(c4ccc[nH]4)C=CC2=C3)CC1', 'NanoBRET Fold Response', 1.02),
  ('O=C(CCc1ccc2n1[B-](F)(F)[N+]1=C(c3ccc[nH]3)C=CC1=C2)NCCOCCOCCNC(=O)OCCOCCN1CCN(C2=Nc3ccccc3Sc3ccccc32)CC1', 'NanoBRET Fold Response', 1.27),
  ('O=C(CCOCCOCCOCCOCCNC(=O)CCc1ccc2n1[B-](F)(F)[N+]1=C(c3ccc[nH]3)C=CC1=C2)NCCCN1CCN(C2=Nc3ccccc3Oc3ccc(Cl)cc32)CC1', 'NanoBRET Fold Response', 1.05);

Okay, now this compound:
Challenge: Name the recorded NanoBRET Fold Response for "CC(C)N(CC[C@H](c1ccccc1)c1cc(CCNC(=O)c2ccc(CNC(=O)CCc3ccc4n3[B-](F)(F)[N+]3=C(c5ccc[nH]5)C=CC3=C4)cc2)ccc1O)C(C)C" .
Response given: 0.95
